- TEST_METHOD_NOTES: reduced absorbance of E. coli cultures with phage – HTS, RecBCD inhibitor project, primary screen (AID 651602)
- CONDITION_LABEL: growth absorbance, at 11.9 µM, hits give high values
Out of some 360,000 compounds screened, about 950 (0.26%) were called active. This is one part of a sample in which actives are shown more often than they occur.
ATTRIBUTE_MEASURED: inhibition (%)
Give just the number in %; leave the unit off.

Answered examples (5):
>  <COMPOUND>
Cc1noc(C)c1NC(=O)Nc1ccc2c(c1)C(=O)N([C@H](C)CO)C[C@H](C)[C@H](CN(C)Cc1ccncc1)OCCCC[C@@H](C)O2

>  <RESULT_UNIT>
%

>  <VAL>
2.8

$$$$
>  <COMPOUND>
CCCCCCCCN1C(=O)[C@@H](CC(=O)NCc2ccc(C)o2)C[C@@]2(C(=O)OC)C1=C[C@H](C(C)(C)C)O[C@@H]2C

>  <RESULT_UNIT>
%

>  <VAL>
4.26

$$$$
>  <COMPOUND>
O=C1Nc2ccccc2C1=NN=Cc1ccco1

>  <RESULT_UNIT>
%

>  <VAL>
-0.54

$$$$
>  <COMPOUND>
COC(=O)[C@]12C[C@H](CC(=O)N3CCN(C(=O)C4CC4)CC3)C(=O)N(Cc3ccc4c(c3)OCO4)C1=C[C@H](C(C)(C)C)O[C@@H]2C

>  <RESULT_UNIT>
%

>  <VAL>
2.87

$$$$
>  <COMPOUND>
COC(=O)[C@]12C[C@H](CC(=O)NCCc3ccccc3OC)C(=O)N(Cc3ccccc3)C1=C[C@H](C(C)C)O[C@@H]2C1CC1

>  <RESULT_UNIT>
%

>  <VAL>
1.94

$$$$

What value of measured inhibition is listed for NC1=NC(=O)C(Cc2cccc(Cl)c2Cl)S1 (stereo unspecified) ?
14.8

Thanks! And CCOC(=O)CNC(=O)N(C)[C@H]1C[C@H]2c3[nH]c4c(-c5ccc6c(c5)OCO6)cccc4c3CCN2C(=O)[C@H]1[C@H](C)O ?
1.25

// repeat for C=CC1=C(C(=O)O)N2C(=O)[C@@H](NC(=O)/C(=N\OCC(=O)O)c3csc(N)n3)[C@H]2SC1 and report
99.8

---

Parameter inhibition: see the listing below.
- TEST_METHOD_NOTES: reduced absorbance of E. coli cultures with phage – HTS, RecBCD inhibitor project, primary screen (AID 651602)
- CONDITION_LABEL: growth absorbance, at 11.9 µM, hits give high values
Hit rate of the full screen: of about 360,000 compounds, about 950 (0.26%) were called active. This is one part of a sample in which actives are shown more often than they occur.
Respond with the bare value in %.

Which inhibition is listed for COC(=O)C1=C(C)N(Cc2ccccc2C(F)(F)F)C(=NCc2ccc(C(F)(F)F)cc2)NC1c1ccc(F)cc1 (centres undefined) ?
7.76

Try the molecule C[C@H]1[C@H](c2ccccc2)Oc2cc(Br)ccc2S(=O)(=O)N1Cc1cccc(F)c1
1.98

Param item: O=C1c2ccccc2NC(c2ccc(-c3cccc(Cl)c3)o2)N1O (centres undefined)
21

Do the same for O=[N+]([O-])c1cc([N+](=O)[O-])c2cccnc2c1O please
-2.95

Queued: CCCCOCC1CN(CCCC)S(=O)(=O)c2c(Oc3ccc(F)cc3)cccc2O1 (centres undefined)
5.95

Okay, and CCOC(=O)Cn1c2c(n(-c3ccc(F)cc3)c1=O)C=C(c1ccccc1)[C@@H](C)C(C(=O)N(C)C1CCCCC1)=C2 ?
3.33

Another molecule: O=C(COC(=O)COc1cc(Cl)c(Cl)cc1Cl)NC1CC1
3.17

Request: COC(=O)C1=C(C)N(Cc2ccc(C(F)(F)F)cc2)C(=NCc2ccc(C(F)(F)F)cc2)NC1c1cccc(Cl)c1 (centres undefined)
1.58

Item: Cc1cc(N2CCN(C(=O)OC(C)(C)C)C[C@H]2C)ccc1N1CCN(Cc2ccccc2)[C@H](C)C1
7.28

Now try N#Cc1cccc(C(=O)NCC2CCN(C(=O)C(=O)c3cc4ccccc4o3)CC2)c1 .
1.78

Input Cc1ccc(NC(=O)N2c3ccccc3SC2c2ccco2)c(C)c1 (centres undefined)
5.53

Try COCCNC(=S)N(CCc1c(C)[nH]c2ccc(C)cc12)Cc1cccnc1 next.
2.3

Same read-out for CC[C@H]1OC(=O)[C@H](C)[C@@H](O[C@H]2C[C@@](C)(OC)[C@@H](O)[C@H](C)O2)[C@H](C)[C@@H](O[C@@H]2O[C@H](C)C[C@H](N(C)C)[C@H]2O)[C@](C)(O)C[C@@H](C)[C@@H]2N[C@@H](COCCOC)O[C@H]([C@H]2C)[C@]1(C)O ?
39.4

Same for CC(=O)c1ccc(S(=O)(=O)NCC2CCN(C(=O)C(=O)c3cccs3)CC2)cc1
2.71

Queued: Cc1[nH]nc2c1C(c1ccc(Br)cc1)NC2=O (centres undefined)
2.87

Entry to check: CCNC(=S)N(CCc1c(C)[nH]c2ccc(C)cc12)Cc1ccco1
13.2

Please give the result for C/C(=N\Nc1ccc(Cl)nn1)c1ccccc1O too.
-5.1

Please answer likewise for CCOC(=O)NN1C(=O)c2ccccc2NC1c1cccc(O)c1 (centres undefined)
2.82

Would you kindly repeat that for COc1ccccc1NC(=S)N1CCN(c2ccc(F)cc2)CC1 ?
2.7

What do you have for CC[C@H](C)[C@H]1CNC(=O)C(=O)N1CC1CCN(CCc2ccc(OC)c(OC)c2)CC1 ?
1.03
